The origin of these recorded values is paper PMC10350927.

- targetOfAssay: UniProt:Q9BXA5
- Sequence (Q9BXA5 1-334): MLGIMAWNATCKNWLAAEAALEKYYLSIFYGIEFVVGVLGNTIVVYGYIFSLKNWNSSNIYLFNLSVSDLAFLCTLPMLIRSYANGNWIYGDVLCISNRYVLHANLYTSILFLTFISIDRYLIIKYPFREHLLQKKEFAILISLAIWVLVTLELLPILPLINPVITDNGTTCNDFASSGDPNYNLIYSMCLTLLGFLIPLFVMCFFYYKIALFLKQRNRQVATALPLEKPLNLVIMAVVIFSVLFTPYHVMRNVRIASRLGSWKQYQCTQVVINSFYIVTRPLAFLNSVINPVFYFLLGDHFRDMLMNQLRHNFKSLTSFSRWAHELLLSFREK
- assayProcedure: BRET competition binding using 46 as tracer, hSUCNR1
- testSettings: […] 46, Kd = 310 nM
measurementLabel: Competion binding using 46 hSUCNR1 pKi
Lab note: jot down the number only; don't add units.

| compound | targetOfAssay | Competion binding using 46 hSUCNR1 pKi |
| --- | --- | --- |
| O=C(O)Cc1ccccc1NC(=O)c1cccc(-c2ccc(Cl)cc2)c1 | UniProt:Q9BXA5 | 7.6 |
| O=C(O)CCC(=O)O [Succinate] | UniProt:Q9BXA5 | 3.2 |
| CN1CCN(Cc2ccc(-c3cccc(C(=O)Nc4ccccc4CC(=O)O)c3)cc2)CC1 | UniProt:Q9BXA5 | 7.1 |

--- query ---
**Query** Request the reported Competion binding using 46 hSUCNR1 pKi associated with O=C(O)[C@H]1O[C@H]1C(=O)O [Compound 47, cis-epoxysuccinic acid]
**Result** 4.1

====

Competion binding using 22 hSUCNR1 pKi values, listed per item
- targetOfAssay: hSUCNR1 (Homo sapiens, UniProt Q9BXA5)
- assayProcedure: BRET competition binding using 22 as tracer, hSUCNR1
- testSettings: 3 μM 22, Kd = 990 nM; mean ± SEM, three experiments

**Query** May I ask what Competion binding using 22 hSUCNR1 pKi has been recorded for O=C(O)Cc1ccccc1NC(=O)c1cccc(-c2ccc(Cl)cc2)c1 ?
**Result** 7.8 ± 0.3

**Query** Same lookup for O=C(O)CCC(=O)O [Succinate] , please.
**Result** 3.7 ± 0.1

**Query** Proceed to O=C(O)[C@H]1O[C@H]1C(=O)O [Compound 47, cis-epoxysuccinic acid]
**Result** 4.1 ± 0.1

**Query** Entry to check: O=C(O)CCc1cccc(Oc2ccc(Oc3cccc4cnccc34)cc2C(F)(F)F)c1
**Result** 5.9 ± 0.5

**Query** Another compound to look at: CN1CCN(Cc2ccc(-c3cccc(C(=O)Nc4ccccc4CC(=O)O)c3)cc2)CC1
**Result** 7.4 ± 0.1

====

- targetOfAssay: mSUCNR1 (Mus musculus, UniProt Q99MT6)
- Sequence (Q99MT6 whole entry): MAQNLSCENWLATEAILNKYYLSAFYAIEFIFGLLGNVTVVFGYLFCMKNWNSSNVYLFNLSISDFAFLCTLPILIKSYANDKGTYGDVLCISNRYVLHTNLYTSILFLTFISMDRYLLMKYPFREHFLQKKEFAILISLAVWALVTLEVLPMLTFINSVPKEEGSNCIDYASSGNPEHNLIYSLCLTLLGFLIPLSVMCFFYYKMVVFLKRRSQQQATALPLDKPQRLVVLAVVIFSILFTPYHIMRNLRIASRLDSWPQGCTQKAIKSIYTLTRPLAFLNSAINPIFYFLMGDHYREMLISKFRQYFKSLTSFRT
- assayProcedure: cAMP assay, agonist potency at mSUCNR1
- Type: cell-based
- Parameters: expressed in transfected cells; host or cells: Flp-In T-REx 293
- testSettings: Flp-In T-REx 293 cells; mean ± SEM, minimum three independent experiments
measurementLabel: cAMP mSUCNR1 pEC50
Lab note: jot the number down without any unit.

Worked examples follow.
| molecule | measurementLabel | resultNumber |
| --- | --- | --- |
| NCCCCOc1ccc(-c2ccc(C(=O)N[C@@H](CC(=O)O)C(=O)O)o2)cc1 [Compound 9b] | cAMP mSUCNR1 pEC50 | 7.13 |
| CC(C)(C)OC(=O)NCCCOc1ccc(-c2ccc(C(=O)N[C@@H](CC(=O)O)C(=O)O)o2)cc1 [Compound 8a] | cAMP mSUCNR1 pEC50 | 6.25 |
| CC(C)(C)OC(=O)NCCCCCCOc1ccc(-c2ccc(C(=O)N[C@@H](CC(=O)O)C(=O)O)o2)cc1 [Compound 8d] | cAMP mSUCNR1 pEC50 | 6.42 |

**Query** GET /values?readout=cAMP mSUCNR1 pEC50&item= CC(C)(C)OC(=O)NCCCCCCOc1ccc(-c2cccc(C(=O)N[C@@H](CC(=O)O)C(=O)O)n2)cc1 [Compound 15d]
**Result** 5.76

**Query** Check CNCCCCCCOc1ccc(-c2ccc(C(=O)N[C@@H](CC(=O)O)C(=O)O)o2)cc1 [Compound 20] too.
**Result** 7.35

**Query** Same again, this time with CC(C)(C)OC(=O)NCCCCOc1ccc(-c2ccc(C(=O)N[C@@H](CC(=O)O)C(=O)O)o2)cc1 [Compound 8b]
**Result** 6.47

**Query** Continue with CN(C)CCCCCCOc1ccc(-c2ccc(C(=O)N[C@@H](CC(=O)O)C(=O)O)o2)cc1 [Compound 21]
**Result** 7.20

**Query** Try O=C(O)CCC(=O)O [Succinate] next.
**Result** 5.02
